All values here come from ChEMBL document CHEMBL5608141.

Tested on: Colon cancer organoid
ASSAY_TEXT: Identification of compartment-specific drug sensitivities in O20 CRC organoid-stroma F20 CAF co-cultures. Organoid is transduced with Lucferase2-P2A-EGFP lentivirus, fibroblast with Renilla-dsRed lentivirus. Dual-Glo Luciferase assay is used to report viability data.
Type: functional, Homo sapiens
Parameters: dose or concentration left out as unconfirmed
CONDITION_DESCRIPTION: Transduced with Lucferase2-P2A-EGFP lentivirus
MEASURED_ATTRIBUTE: Cell Viability (%)
Report the figure in % without appending any unit label.

input: # input molecule: C[C@H](c1ccc(F)cc1)N(Cc1cccc(C(=O)O)c1)C(=O)c1cnc2ccccc2c1 [PF-05105679] ; wanted: its Cell Viability
output: 143.937

input: # input molecule: COc1ccccc1-c1cc(Nc2cccc(CS(N)(=O)=O)c2)ncn1 ; wanted: its Cell Viability
output: 105.142

input: # input molecule: COc1cc2ncn(-c3cc(OCc4ccccc4C(F)(F)F)c(C(N)=O)s3)c2cc1OC [GW843682X] ; wanted: its Cell Viability
output: 89.1479

input: # input molecule: O=C(NCCN1CCOCC1)c1ccc2c(c1)C(=O)c1ccc(Nc3ccc(F)c(NC(=O)c4ccccc4)c3)cc1CC2 [FS-694] ; wanted: its Cell Viability
output: 66.3241

input: # input molecule: O=C(Nc1cccnn1)N1CC(C/C=C/c2cncc(Oc3ccc(C(F)(F)F)cn3)n2)C1 ; wanted: its Cell Viability
output: 97.9448

input: # input molecule: CCC(=O)N[C@@H]1CC[C@H](C(=O)N(C)c2ccc(-c3nc4ccccc4o3)cc2)C1 [BI 99990] ; wanted: its Cell Viability
output: 115.817

input: # input molecule: CN[C@@H]1C[C@H]2O[C@@](C)([C@@H]1OC)n1c3ccccc3c3c4c(c5c6ccccc6n2c5c31)C(=O)NC4 [STAUROSPORINE] ; wanted: its Cell Viability
output: 0.3702

input: # input molecule: CCC(F)(F)c1cc(N2CCC(S(C)(=O)=O)CC2)nc2sc(C(N)=O)c(N)c12 [BI-605906] ; wanted: its Cell Viability
output: 180.529

input: # input molecule: Cn1nc(C(=O)NCc2ccc(C(=O)O)cc2)cc1-c1ccc2[nH]ccc2c1 [BI 4395] ; wanted: its Cell Viability
output: 100.657

input: # input molecule: CCn1cc(-c2cccc(C(F)(F)F)c2)c2sc(C(=N)NC3CCS(=O)(=O)CC3)cc2c1=O ; wanted: its Cell Viability
output: 61.0963

input: # input molecule: COc1c(OCCCN2CCOCC2)ccc2c1N=C(NC(=O)c1cnc(N)nc1)N1CCN=C21 [COPANLISIB] ; wanted: its Cell Viability
output: 2.299

input: # input molecule: CN1CCN(c2ccc(-c3cccc(CN4CCOCC4)c3)cc2NC(=O)c2c[nH]c(=O)cc2C(F)(F)F)CC1 ; wanted: its Cell Viability
output: 82.8822

input: # input molecule: COc1cc(-c2cn([C@H]3CCc4ccccc4N(CC(F)(F)F)C3=O)nn2)ccc1-n1ccc(C)n1 ; wanted: its Cell Viability
output: 70.0794

input: # input molecule: COc1ccc(CCc2nc3cc(-c4c(C)noc4C)ccc3n2C[C@H](C)N2CCOCC2)cc1Cl ; wanted: its Cell Viability
output: 96.1019

input: # input molecule: CN(C)C(=O)Cn1cc(-c2ccc(-c3nnc4ccccn34)cc2)cn1 ; wanted: its Cell Viability
output: 167.784

input: # input molecule: Cc1c(N2CCNCC2)nc2ccc(Br)cc2c1C(=O)NC[C@H](CCC(=O)O)c1ccccc1Cl [BAY-403] ; wanted: its Cell Viability
output: 121.312

input: # input molecule: CC(=O)c1cc(-c2cc(C(=O)NC3CC3)ccc2C)c2ncccn12 ; wanted: its Cell Viability
output: 68.6867

input: # input molecule: CN1CCN(c2ccc(OC(F)(F)F)c(Nc3ncc4c(n3)-c3c(c(C(N)=O)nn3CCO)CC4)c2)CC1 [ONVANSERTIB] ; wanted: its Cell Viability
output: 1.999

input: # input molecule: CCN1CCN(c2ccc(Nc3cc(N(C)C(=O)Nc4c(Cl)c(OC)cc(OC)c4Cl)ncn3)cc2)CC1 [INFIGRATINIB] ; wanted: its Cell Viability
output: 101.232

input: # input molecule: O=C(Nc1ccc(-c2ccnc(Nc3ccc(N4CCOCC4)cc3)n2)cc1)[C@@H]1CCCN1 ; wanted: its Cell Viability
output: 139.273

input: # input molecule: Cn1cc(-c2[nH]c3cc(NC(=O)[C@H](N)C4CCCCC4)cc4c3c2C=NNC4=O)cn1 ; wanted: its Cell Viability
output: 23.2406

input: # input molecule: C[C@H](c1ccnc(Nc2nc3ccc(-c4cc(N(C)C)ncn4)cc3[nH]2)c1)N1CCN(C(=O)CC(F)(F)F)CC1 [BAY-985] ; wanted: its Cell Viability
output: 129.711

input: # input molecule: COc1cc(Nc2ccnc3ccc(Br)cc23)cc(OC)c1OC ; wanted: its Cell Viability
output: 3.207

input: # input molecule: CN(C)C/C=C/C(=O)Nc1cc2c(Nc3ccc(F)c(Cl)c3)ncnc2cc1O[C@H]1CCOC1.O=C(O)/C=C\C(=O)O.O=C(O)/C=C\C(=O)O [AFATINIB DIMALEATE] ; wanted: its Cell Viability
output: 37.8231

input: # input molecule: CCN(CCO)CCCOc1ccc2c(Nc3cc(CC(=O)Nc4cccc(F)c4)[nH]n3)ncnc2c1 [DEFOSBARASERTIB] ; wanted: its Cell Viability
output: 5.365

input: # input molecule: O=C1NC(c2ccccn2)Sc2ccccc21 (stereo not drawn) [BTZO-4] ; wanted: its Cell Viability
output: 109.35

input: # input molecule: CCOc1cc(N2CCC(O)CC2)ccc1Nc1ncc2c(n1)N(C1CCCC1)CCC(=O)N2C ; wanted: its Cell Viability
output: 51.7552

input: # input molecule: O=C(NC[C@H](O)CN1CCc2ccccc2C1)c1ccnc(NC2CCC2)c1 ; wanted: its Cell Viability
output: 43.0801

====

System: Colon cancer organoid
ASSAY_TEXT: Identification of compartment-specific drug sensitivities in O20 CRC organoid-stroma F20 CAF co-cultures. Organoid is transduced with Lucferase2-P2A-EGFP lentivirus, fibroblast with Renilla-dsRed lentivirus. Dual-Glo Luciferase assay is used to report viability data.
Format: functional, Homo sapiens
Parameters: dose or concentration left out as unconfirmed
CONDITION_DESCRIPTION: Transduced with Renilla-dsRed lentivirus
MEASURED_ATTRIBUTE: Cell Viability (%)
Report the figure in % without appending any unit label.

input: # input compound: Cl.Cl.NC1(c2ccc(-c3nc4ccn5c(=O)[nH]nc5c4cc3-c3ccccc3)cc2)CCC1 ; wanted: its Cell Viability
output: 145.22

input: # input compound: O=C(NOCC1CC1)c1ccc(F)c(F)c1Nc1ccc(I)cc1Cl [CI-1040] ; wanted: its Cell Viability
output: 195.336

input: # input compound: COc1ccccc1-c1cc(N2CCN(C(=O)OC(C)(C)C)CC2)c(N)nn1 ; wanted: its Cell Viability
output: 160.936

input: # input compound: COc1cc(-c2cn([C@H]3CCc4c(F)cccc4N(CC(F)(F)F)C3=O)nn2)ccc1-n1cnc(C)c1 ; wanted: its Cell Viability
output: 109.286

input: # input compound: Cn1nc(C(=O)NCc2ccc(C(=O)O)cc2)cc1-c1ccc2[nH]ccc2c1 [BI 4395] ; wanted: its Cell Viability
output: 92.7545

input: # input compound: Clc1cccc(-c2nnnn2Cc2cccnc2)c1Cl ; wanted: its Cell Viability
output: 101.74

input: # input compound: CC(C)[C@H](C(=O)Nc1ccc(C(=O)NO)cc1)c1ccccc1 [AR-42] ; wanted: its Cell Viability
output: 352.85

input: # input compound: CCC(=N\O)/C(C)=C/c1ccc(F)c(C)c1 [A-226] ; wanted: its Cell Viability
output: 115.263

input: # input compound: Cc1cnc(-c2cc(Cl)ccc2F)cc1-n1c(=O)n(CC(N)=O)c2ccccc21 [Al11] ; wanted: its Cell Viability
output: 109.542

input: # input compound: COc1ccc2c(c1)O[C@H](c1ccc(OC)c(OC)c1)C[C@@H]2NC(=O)C1(c2ccc3c(c2)OC(F)(F)O3)CC1 [A-1596584] ; wanted: its Cell Viability
output: 142.746

input: # input compound: O=C(Nc1ccc(-c2ccnc(Nc3ccc(N4CCOCC4)cc3)n2)cc1)[C@@H]1CCCN1 ; wanted: its Cell Viability
output: 76.0213

input: # input compound: COc1cccc(CNC(=O)c2nc3scc(CN(C)Cc4ccccc4)c3c(=O)[nH]2)c1 [T-26f] ; wanted: its Cell Viability
output: 109.586

input: # input compound: CN(C)C(=O)c1ccc(-c2cc(C(=O)N[C@@H]3CCc4ccccc43)no2)cc1O ; wanted: its Cell Viability
output: 104.475

input: # input compound: CN1CCN(Cc2cc(NC(=O)c3ccc4c(c3)CN(c3ccccc3)CC4)cc(C(F)(F)F)c2)CC1 ; wanted: its Cell Viability
output: 84.0381

input: # input compound: CN(C)C(=O)c1ccc(-c2cc(C(=O)N(C)C3CCCC3)no2)cc1O ; wanted: its Cell Viability
output: 110.433

input: # input compound: CC(C)Oc1ccc(-c2c[nH]cc2CN(C)CCO)cc1 ; wanted: its Cell Viability
output: 121.653
